molecules and their reported pIC50
tested on: HT-29; experiment: Antiproliferative activity against human HT-29 cells assessed as inhibition of cell growth measured after 48 hrs by CCK-8 assay; format: functional, cell-based; conditions: HT-29, 48 h
pIC50: −log10 of the molar value.
property.name: pIC50

smiles.code | measurement.target | property.name | relational.operator | measured.result
OC[C@@H]1Oc2ccc(/C=C/c3cc(O)cc(O)c3)cc2O[C@H]1c1cc(Br)c(O)c(Br)c1 | HT-29 | pIC50 | = | 4.52
OC[C@@H]1Oc2ccc(/C=C/c3cc(O)cc(O)c3)cc2O[C@H]1c1ccc(O)cc1 | HT-29 | pIC50 | = | 4.62
COc1cc([C@@H]2Oc3cc(/C=C/c4cc(O)cc(O)c4)ccc3O[C@H]2CNC(C)=O)cc(OC)c1O | HT-29 | pIC50 | = | 5.07
COc1cc([C@@H]2Oc3cc(/C=C/c4cc(O)cc(O)c4)ccc3O[C@H]2CNC(=O)c2ccc(C(F)(F)F)cc2)cc(OC)c1O | HT-29 | pIC50 | = | 5.05
COc1cc([C@@H]2Oc3cc(/C=C/c4ccccc4)ccc3O[C@H]2CO)cc(OC)c1O | HT-29 | pIC50 | = | 5.04
COc1cc([C@@H]2Oc3cc(/C=C/c4cc(O)cc(O)c4)ccc3O[C@H]2CNC(=O)c2ccccc2)cc(OC)c1O | HT-29 | pIC50 | = | 4.71
COc1cc([C@@H]2Oc3cc(/C=C/c4cc(O)cc(O)c4)ccc3O[C@H]2CNC(=O)c2ccc(F)cc2)cc(OC)c1O | HT-29 | pIC50 | = | 5.10
COc1cc([C@@H]2Oc3cc(/C=C/c4ccc([N+](=O)[O-])cc4)ccc3O[C@H]2CO)cc(OC)c1O | HT-29 | pIC50 | = | 5.33
COc1cc([C@@H]2Oc3cc(/C=C/c4cc(O)cc(O)c4)ccc3O[C@H]2CNC(=O)S(C)(=O)=O)cc(OC)c1O | HT-29 | pIC50 | = | 4.78
COc1cc([C@@H]2Oc3cc(/C=C/c4cc(O)cc(O)c4)ccc3O[C@H]2CNC(=O)c2cc(F)c(F)c(F)c2)cc(OC)c1O | HT-29 | pIC50 | = | 5.15
COc1cc([C@@H]2Oc3cc(/C=C/c4cc(O)cc(O)c4)ccc3O[C@H]2CN)cc(OC)c1O | HT-29 | pIC50 | = | 4.85
COc1cc([C@@H]2Oc3cc(/C=C/c4ccsc4)ccc3O[C@H]2CO)cc(OC)c1O | HT-29 | pIC50 | = | 4.64
OC[C@@H]1Oc2ccc(/C=C/c3cc(O)cc(O)c3)cc2O[C@H]1c1cc(Cl)c(O)c(Cl)c1 | HT-29 | pIC50 | = | 4.26
COc1cc([C@@H]2Oc3cc(/C=C/c4ccc(I)cc4)ccc3O[C@H]2CO)cc(OC)c1O | HT-29 | pIC50 | = | 4.60
COc1cc([C@@H]2Oc3cc(/C=C/c4cc(O)cc(O)c4)ccc3O[C@H]2CO[C@@H]2O[C@H](CO)[C@H](O)[C@H](O)[C@H]2O)cc(OC)c1O | HT-29 | pIC50 | < | 3.70
COc1cc([C@@H]2Oc3cc(/C=C/c4ccc(NC(C)=O)cc4)ccc3O[C@H]2CO)cc(OC)c1O | HT-29 | pIC50 | < | 4.00
